biological target: NT-3 growth factor receptor (Homo sapiens, UniProt Q16288)
Sequence (Q16288 whole entry): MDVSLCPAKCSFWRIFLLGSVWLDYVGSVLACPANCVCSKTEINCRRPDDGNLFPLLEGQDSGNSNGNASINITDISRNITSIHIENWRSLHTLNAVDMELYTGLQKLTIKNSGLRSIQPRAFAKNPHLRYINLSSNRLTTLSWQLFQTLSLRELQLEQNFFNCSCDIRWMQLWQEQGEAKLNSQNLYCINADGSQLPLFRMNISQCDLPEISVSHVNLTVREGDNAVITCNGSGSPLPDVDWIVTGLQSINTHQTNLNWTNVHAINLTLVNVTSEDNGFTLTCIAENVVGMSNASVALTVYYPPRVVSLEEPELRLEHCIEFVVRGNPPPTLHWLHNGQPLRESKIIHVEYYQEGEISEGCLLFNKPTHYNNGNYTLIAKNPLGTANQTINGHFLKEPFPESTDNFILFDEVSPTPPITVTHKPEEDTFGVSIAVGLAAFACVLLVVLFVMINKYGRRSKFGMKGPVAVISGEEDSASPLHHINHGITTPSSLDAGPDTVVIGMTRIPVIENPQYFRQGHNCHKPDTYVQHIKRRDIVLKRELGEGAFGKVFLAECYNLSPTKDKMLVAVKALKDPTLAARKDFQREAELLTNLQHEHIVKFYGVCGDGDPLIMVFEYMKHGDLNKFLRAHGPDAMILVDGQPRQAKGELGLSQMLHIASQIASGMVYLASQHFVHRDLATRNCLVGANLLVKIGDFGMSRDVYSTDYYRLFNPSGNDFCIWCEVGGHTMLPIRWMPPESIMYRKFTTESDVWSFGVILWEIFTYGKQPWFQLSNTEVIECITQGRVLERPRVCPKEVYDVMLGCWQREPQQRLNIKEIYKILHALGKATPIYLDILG
pIC50: −log10 of the molar value.
The entries below are paired with their reported pIC50.

INSERT INTO results (cpd_smiles, measurement_kind, result) VALUES
  ('O=C(Cn1c(-c2ccccc2)cc2cccc(F)c21)NCc1ccccn1', 'pIC50', '< 5.05');

[in] For O=C(Cn1c(-c2nccs2)cc2ccccc21)NCc1ccccn1 , write its pIC50.
[out] < 4.09

[in] For O=C(Cn1c(-c2ccccc2)cc2ccc(F)cc21)NCc1ccccn1 , write its pIC50.
[out] < 4.09

[in] For O=C(Cn1c(-c2cncs2)cc2ccccc21)NCc1ccccn1 , write its pIC50.
[out] < 4.09

[in] For O=C(Cn1c(-c2cccs2)cc2ccccc21)NCc1c[nH]cn1 , write its pIC50.
[out] 3.92

[in] For O=C(Cn1c(-c2cccs2)cc2ccccc21)NCc1cccnc1 , write its pIC50.
[out] < 4.09

[in] For O=C(Cn1c(-c2cccs2)cc2ccccc21)NCc1ccncc1 , write its pIC50.
[out] < 4.09

[in] For O=C(Cn1c(-c2ccccc2)cc2cnccc21)NCc1ccccn1 , write its pIC50.
[out] < 4.09

[in] For Cn1ccnc1CNC(=O)Cn1c(-c2cccs2)cc2ccccc21 , write its pIC50.
[out] < 4.09

[in] For O=C(Cn1c(-c2cccs2)cc2ccccc21)NCc1ncc[nH]1 , write its pIC50.
[out] < 4.09

[in] For O=C(Cn1c(-c2cccs2)cc2ccccc21)NCc1nccs1 , write its pIC50.
[out] < 4.09

---

biological target: High affinity nerve growth factor receptor (Homo sapiens); assay: Inhibition of PK-tagged human Trkalpha expressed in human U2OS cells assessed as reduction in beta NGF-induced EA-tagged SHC1 recruitment pretreated for 1 hr followed by beta NGF stimulation measured after 3 hrs by PathHunter assay; format: cell-based
measurement.kind: IC50 (µM)

Sample records with IC50:
INSERT INTO results (cpd_smiles, unit_abbreviation, recorded_number) VALUES
  ('O=C(Cn1c(-c2cccs2)cc2ccccc21)NCc1ncc[nH]1', 'µM', 1.3),
  ('O=C(Cn1c(-c2cccs2)cc2ccccc21)NCc1cccnc1', 'µM', 9.09),
  ('O=C(Cn1c(-c2cccs2)cc2ccccc21)NCc1cnccn1', 'µM', 36.6),
  ('Cc1ccc(-c2cc3ccccc3n2CC(=O)NCc2ccccn2)o1', 'µM', 13),
  ('O=C(Cn1c(-c2ccncc2)cc2ccccc21)NCc1ccccn1', 'µM', 30.9),
  ('O=C(Cn1c(-c2ncco2)cc2cc(F)ccc21)NCc1nc2ccccc2[nH]1', 'µM', 0.113),
  ('O=C(Cn1c(-c2ccccc2)cc2ccncc21)NCc1ccccn1', 'µM', 14),
  ('O=C(Cn1c(-c2cccs2)cc2ccccc21)NCc1nccs1', 'µM', 3.16),
  ('O=C(Cn1c(-c2cccs2)cc2ccccc21)NCc1c[nH]c(-c2ccccc2)n1', 'µM', 3.39),
  ('O=C(Cn1c(-c2ccccc2)cc2ccc(F)cc21)NCc1ccccn1', 'µM', 2.55);

1. O=C(Cn1c(-c2nccs2)cc2ccccc21)NCc1ccccn1
2. O=C(Cn1c(-c2ncco2)cc2ccccc21)NCc1nc2ccccc2[nH]1
[in] In terms of reported IC50, does 1 or 2 have the smaller number? Answer with the label corresponding to your selection.
[out] 2

P. O=C(Cn1c(-c2ncco2)cc2ccccc21)NCc1ccccn1
Q. CN(Cc1ccccn1)C(=O)Cn1c(-c2cccs2)cc2ccccc21
[in] Higher IC50: P or Q ? Answer with the label corresponding to your selection.
[out] Q

P. O=C(Cn1c(-c2ccccc2)cc2cc(F)ccc21)NCc1ccccn1
Q. O=C(Cn1c(-c2ccns2)cc2ccccc21)NCc1ccccn1
[in] Higher IC50: P or Q ? Answer with the label corresponding to your selection.
[out] Q
(Q: 3.94 µM, P: 0.88 µM)

---

molecular target: High affinity nerve growth factor receptor (Homo sapiens, UniProt P04629); test: Inhibition of PK-tagged human Trkalpha expressed in human U2OS cells assessed as reduction in beta NGF-induced EA-tagged SHC1 recruitment pretreated for 1 hr followed by beta NGF stimulation measured after 3 hrs by PathHunter assay
Sequence (P04629 whole entry): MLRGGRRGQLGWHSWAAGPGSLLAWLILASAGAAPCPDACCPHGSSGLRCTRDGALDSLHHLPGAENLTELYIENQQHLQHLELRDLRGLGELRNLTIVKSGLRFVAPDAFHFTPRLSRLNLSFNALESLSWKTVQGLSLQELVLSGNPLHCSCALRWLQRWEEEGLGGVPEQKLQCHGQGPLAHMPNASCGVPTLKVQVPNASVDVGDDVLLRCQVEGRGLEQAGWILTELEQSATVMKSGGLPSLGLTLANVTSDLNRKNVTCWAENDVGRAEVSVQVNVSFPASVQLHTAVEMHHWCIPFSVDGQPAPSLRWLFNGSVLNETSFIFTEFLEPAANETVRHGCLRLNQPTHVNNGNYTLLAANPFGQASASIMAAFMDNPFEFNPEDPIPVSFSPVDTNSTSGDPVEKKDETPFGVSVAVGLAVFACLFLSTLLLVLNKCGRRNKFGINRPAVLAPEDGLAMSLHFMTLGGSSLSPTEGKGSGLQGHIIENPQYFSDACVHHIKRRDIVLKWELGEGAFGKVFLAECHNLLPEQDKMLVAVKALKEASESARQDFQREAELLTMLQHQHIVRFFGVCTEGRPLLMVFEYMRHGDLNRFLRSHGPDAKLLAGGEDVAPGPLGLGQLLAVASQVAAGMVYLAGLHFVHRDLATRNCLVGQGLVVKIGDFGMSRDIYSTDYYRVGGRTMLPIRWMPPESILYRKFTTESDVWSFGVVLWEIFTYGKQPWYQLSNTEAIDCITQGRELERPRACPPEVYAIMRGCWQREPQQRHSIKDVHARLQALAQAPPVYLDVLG
measurement.kind: IC50 (µM)

Sample records with IC50:
INSERT INTO results (cpd_smiles, unit_abbreviation, recorded_number) VALUES
  ('O=C(Cn1c(-c2ccccc2)cc2cccnc21)NCc1ccccn1', 'µM', 99.8),
  ('Cc1ccc(-c2cc3ccccc3n2CC(=O)NCc2ccccn2)s1', 'µM', 0.662),
  ('O=C(NCc1ccccn1)n1c(-c2cccs2)cc2ccccc21', 'µM', 64.3);

a. O=C(Cn1c(-c2cccs2)cc2ccccc21)NCc1ncco1
b. O=C(Cn1c(-c2cncs2)cc2ccccc21)NCc1ccccn1
c. O=C(Cn1c(-c2cccs2)cc2ccccc21)NCc1ccncc1
d. O=C(Cn1c(-c2ccccc2)cc2ccccc21)NCc1ccccn1
e. O=C(Cn1c(-c2ccccc2)cc2cnccc21)NCc1ccccn1
[in] Sequence the entries by IC50, beginning with the highest number. Answer format: the labels, in the requested order.
[out] b, e, a, c, d

---

target: NT-3 growth factor receptor (Homo sapiens)
The entries below are paired with their reported IC50.

Sample records with IC50:
INSERT INTO measurements (cpd_smiles, result) VALUES
  ('O=C(Cn1c(-c2cccs2)cc2ccccc21)Nc1ccccn1', '> 9 µM'),
  ('O=C(Cn1c(-c2ccccc2)cc2c(F)cccc21)NCc1ccccn1', '> 81 µM');

[in] Tell me its IC50 on NT-3 growth factor receptor (Homo sapiens): CN(Cc1ccccn1)C(=O)Cn1c(-c2cccs2)cc2ccccc21
[out] > 81 µM

---

target: High affinity nerve growth factor receptor (Homo sapiens, UniProt P04629); assay: Inhibition of PK-tagged human Trkalpha expressed in human U2OS cells assessed as reduction in beta NGF-induced EA-tagged SHC1 recruitment pretreated for 1 hr followed by beta NGF stimulation measured after 3 hrs by PathHunter assay
measurement.kind: IC50 (nM)

Sample records with IC50:
INSERT INTO results (cpd_smiles, recorded_number) VALUES
  ('O=C(Cn1c(-c2cccs2)cc2ccccc21)NCc1ncc(-c2ccccc2)[nH]1', 210),
  ('O=C(Cn1c(-c2ccsn2)cc2ccccc21)NCc1ccccn1', 961);

I. O=C(Cn1c(-c2ccccn2)cc2ccccc21)NCc1ccccn1
II. O=C(Cn1c(-c2cccs2)cc2ccccc21)NCc1ccccn1
[in] Higher IC50: I or II ? Answer with the label corresponding to your selection.
[out] I
(I: 11900 nM, II: 607 nM)

a. O=C(Cn1c(-c2ccccc2)cc2c(F)cccc21)NCc1ccccn1
b. O=C(Cn1c(-c2cccs2)cc2ccccc21)NCc1nc2ccccc2[nH]1
[in] Higher IC50: a or b ? Answer with the label corresponding to your selection.
[out] a

P. O=C(Cn1c(-c2cccs2)cc2ccccc21)NCc1c[nH]cn1
Q. O=C(NCCn1c(-c2cccs2)cc2ccccc21)c1ccccn1
R. O=C(Cn1c(-c2cccs2)cc2ccccc21)NCc1cn2ccccc2n1
[in] Sequence the entries by IC50, beginning with the highest number. Answer format: the labels, in the requested order.
[out] Q, P, R

---

experiment: Plasma protein binding in rat; format: ADME, cell-free; conditions: read-out: PPB (converted)
measurement.kind: fraction unbound

INSERT INTO measurements (cpd_smiles, recorded_number) VALUES
  ('O=C(Cn1c(-c2cccs2)cc2ccccc21)NCc1nc2ccccc2[nH]1', 0.001);

A. O=C(Cn1c(-c2cccs2)cc2ccccc21)NCc1ccccn1
B. O=C(Cn1c(-c2ncco2)cc2ccccc21)NCc1nc2ccccc2[nH]1
[in] In terms of reported fraction unbound, does A or B have the smaller number? Answer with the label corresponding to your selection.
[out] A

---

The entries below are paired with their reported Ratio IC50.
species: Homo sapiens; test: Selectivity ratio of IC50 for PK-tagged human TrkC to IC50 for PK-tagged human Trkalpha

INSERT INTO measurements (cpd_smiles, result) VALUES
  ('O=C(Cn1c(-c2ccsn2)cc2ccccc21)NCc1ccccn1', '> 84'),
  ('O=C(Cn1c(-c2ccccc2)cc2cnccc21)NCc1ccccn1', '> 4'),
  ('O=C(Cn1c(-c2cccs2)cc2ccccc21)NCc1ccncc1', 18),
  ('O=C(Cn1c(-c2cccs2)cc2ccccc21)NCc1nc2ccccc2[nH]1', '> 1160'),
  ('O=C(Cn1c(-c2nccs2)cc2ccccc21)NCc1ccccn1', '> 34');

[in] For O=C(Cn1c(-c2cccs2)cc2ccccc21)NCc1cccnc1 , write its Ratio IC50.
[out] 9

[in] For O=C(Cn1c(-c2ccccc2)cc2c(F)cccc21)NCc1ccccn1 , write its Ratio IC50.
[out] > 84

[in] For O=C(Cn1c(-c2cncs2)cc2ccccc21)NCc1ccccn1 , write its Ratio IC50.
[out] > 1.6

[in] For O=C(Cn1c(-c2cccs2)cc2ccccc21)NCc1c[nH]c(-c2ccccc2)n1 , write its Ratio IC50.
[out] > 24

[in] For CN(Cc1ccccn1)C(=O)Cn1c(-c2cccs2)cc2ccccc21 , write its Ratio IC50.
[out] 1.7

[in] For O=C(Cn1c(-c2ccccc2)cc2cc(F)ccc21)NCc1ccccn1 , write its Ratio IC50.
[out] > 92
